- Test system: A2780 cells
- Protocol Notes: SRB proliferation assay for non-light-sensitive complexes, A2780
- Format: cell-based, human
- Condition Details: ambient light, 24 h exposure, 72 h recovery
pIC50: −log10 of the molar value.
Parameter Measured: pIC50

INSERT INTO results (molecule, parameter_measured, test_result) VALUES
  ('N.N.[Cl][Pt][Cl] [Complex 7, cis-[PtCl2(NH3)2]]', 'pIC50', 5.82),
  ('C[NH2+][Pt@SP3-2]([Cl])([Cl])[n+]1ccsc1 [Complex 6, trans-[PtCl2(MA)(Tz)]]', 'pIC50', 5.16),
  ('C[NH2+][Pt@SP3-2]([Cl])([Cl])[n+]1ccccc1 [Complex 5, trans-[PtCl2(MA)(Py)]]', 'pIC50', 5.62);

Where do the numbers come from? From paper PMC4280898.
